Source: paper PMC10002375

Test system: HCT-116 (colon cancer)
Method Description: MTT cell viability assay, HCT-116
Format: cell-based, human
Condition Summary: Homo sapiens, HCT-116; MTT, 72 h
Give pIC50 for every item shown.
Answers are plain numbers, as −log10 of the molar value.

INSERT INTO assay_data (smiles_str, quantity_name, readout_number) VALUES
  ('Cc1ccc(CSc2cc(Cl)c(C)cc2S(=O)(=O)NC(=N)N/N=C(/C=C/c2ccccc2)c2ccccc2)cc1', 'pIC50', 3.80);

Report pIC50 for each item below.
1. Cc1cc(S(=O)(=O)NC(N)=NN=C(C=Cc2ccc([N+](=O)[O-])cc2)c2ccccc2)c(SCc2ccccc2)cc1Cl
2. Cc1cc(S(=O)(=O)NC(N)=NN=C(C=Cc2ccccc2O)c2ccccc2)c(SCc2ccccc2C)cc1Cl
3. COc1ccc(C=CC(=NN=C(N)NS(=O)(=O)c2cc(C)c(Cl)cc2SCc2ccc(C)cc2)c2ccccc2)cc1
4. Cc1ccc(CSc2cc(Cl)c(C)cc2S(=O)(=O)NC(N)=NN=C(C=Cc2ccccc2O)c2ccccc2)cc1
5. COc1ccc(C=CC(=NN=C(N)NS(=O)(=O)c2cc(C)c(Cl)cc2SCc2ccccc2)c2ccccc2)cc1
6. Cc1cc(S(=O)(=O)NC(N)=NN=C(C=Cc2ccc(O)cc2)c2ccccc2)c(SCc2ccccc2C)cc1Cl

Resp:
[3.49, 5.05, 3.63, 4.96, 3.52, 5.00]

###

Test system: HeLa (cervical cancer)
Method Description: MTT cell viability assay, HeLa
Type: cell-based, human
Condition Summary: Homo sapiens, HeLa; MTT, 72 h
Method: All chemicals, if not stated otherwise, were obtained from Sigma-Aldrich (St. Louis, MO, USA). […] Cell viability was determined using the MTT (3-(4,5-dimethylthiazol-2-yl)-2,5-diphenyl-tetrazoliumbromide) assay. […] Cells were lysed with DMSO and the absorbance of the formazan solution was measured at 550 nm with a plate reader (1420 multilabel counter, Victor, Jügesheim, Germany). […] Values are expressed as the mean ± SD of at least three independent experiments.
// returns condition not met unless IC50 is strictly below 20 µM, in which case condition met

Please review the entries below; each comes with its answer.
INSERT INTO measurements (smiles_str, assay_system, discrete_label) VALUES
  ('Cc1cc(S(=O)(=O)NC(N)=NN=C(C=Cc2ccc(O)cc2)c2ccccc2)c(SCc2ccccc2C)cc1Cl', 'HeLa (cervical cancer)', 'condition met'),
  ('Cc1ccc(CSc2cc(Cl)c(C)cc2S(=O)(=O)NC(N)=NN=C(C=Cc2ccc(Cl)cc2)c2ccccc2)cc1', 'HeLa (cervical cancer)', 'condition not met'),
  ('Cc1ccc(CSc2cc(Cl)c(C)cc2S(=O)(=O)NC(N)=NN=C(C=Cc2ccccc2O)c2ccccc2)cc1', 'HeLa (cervical cancer)', 'condition not met'),
  ('Cc1cccc(CSc2cc(Cl)c(C)cc2S(=O)(=O)NC(N)=NN=C(C=Cc2ccccc2O)c2ccccc2)c1', 'HeLa (cervical cancer)', 'condition not met'),
  ('Cc1ccc(CSc2cc(Cl)c(C)cc2S(=O)(=O)NC(=N)N/N=C(/C=C/c2ccccc2)c2ccccc2)cc1', 'HeLa (cervical cancer)', 'condition not met'),
  ('Cc1cc(S(=O)(=O)NC(N)=NN=C(C=Cc2ccccc2O)c2ccccc2)c(SCc2ccccc2C)cc1Cl', 'HeLa (cervical cancer)', 'condition met'),
  ('Cc1cc(S(=O)(=O)NC(N)=NN=C(C=Cc2ccc([N+](=O)[O-])cc2)c2ccccc2)c(SCc2ccc(Cl)cc2)cc1Cl', 'HeLa (cervical cancer)', 'condition not met'),
  ('Cc1ccc(CSc2cc(Cl)c(C)cc2S(=O)(=O)NC(N)=NN=C(C=Cc2ccc(O)cc2)c2ccccc2)cc1', 'HeLa (cervical cancer)', 'condition met');

Now consider the entry below.
Req: Report whether reported IC50 is lower than 20 µM (strictly) for `Cc1ccc(CSc2cc(Cl)c(C)cc2S(=O)(=O)NC(N)=NN=C(C=Cc2ccc([N+](=O)[O-])cc2)c2ccccc2)cc1`
Resp: condition not met

###

So I've got a bunch of compounds here, and I need their Selectivity Index MCF-7/HaCaT values.
System: MCF-7 (breast cancer)
Method Description: MTT cell viability assay, MCF-7
Assay type: cell-based, human
Condition Summary: MCF-7 versus HaCaT, from IC50 values

Take a look at these entries with their results.
INSERT INTO measurements (compound, result) VALUES
  ('Cc1cc(S(=O)(=O)NC(N)=NN=C(C=Cc2ccc(O)cc2)c2ccccc2)c(SCc2ccccc2C)cc1Cl [Compound 15]', 2.5),
  ('Cc1cc(S(=O)(=O)NC(N)=NN=C(C=Cc2ccc(O)cc2)c2ccccc2)c(SCc2cccc(Cl)c2)cc1Cl [Compound 27]', 2.3);

Dear colleague, could you please provide Selectivity Index MCF-7/HaCaT for the compounds listed below?
1. Cc1cc(S(=O)(=O)NC(N)=NN=C(C=Cc2ccccc2O)c2ccccc2)c(SCc2ccccc2C)cc1Cl [Compound 14]
2. Cc1ccc(CSc2cc(Cl)c(C)cc2S(=O)(=O)NC(N)=NN=C(C=Cc2ccccc2O)c2ccccc2)cc1 [Compound 19]
3. Cc1cc(S(=O)(=O)NC(N)=NN=C(C=Cc2ccccc2O)c2ccccc2)c(SCc2ccccc2Cl)cc1Cl [Compound 24]

Resp:
[2.4, 1.9, 2.7]

// for each compound below, give its Selectivity Index MCF-7/HaCaT
1. Cc1ccc(CSc2cc(Cl)c(C)cc2S(=O)(=O)NC(N)=NN=C(C=Cc2ccc(O)cc2)c2ccccc2)cc1 [Compound 20]
2. Cc1cc(S(=O)(=O)NC(N)=NN=C(C=Cc2ccc(O)cc2)c2ccccc2)c(SCc2ccc(Cl)cc2)cc1Cl [Compound 30]

Resp:
2.1
4.7

###

System: HeLa (cervical cancer)
Method Description: MTT cell viability assay, HeLa
Type: cell-based, human
Condition Summary: Homo sapiens, HeLa; MTT, 72 h
Procedure: All chemicals, if not stated otherwise, were obtained from Sigma-Aldrich (St. Louis, MO, USA). […] Cell viability was determined using the MTT (3-(4,5-dimethylthiazol-2-yl)-2,5-diphenyl-tetrazoliumbromide) assay. […] Cells were lysed with DMSO and the absorbance of the formazan solution was measured at 550 nm with a plate reader (1420 multilabel counter, Victor, Jügesheim, Germany). […] Values are expressed as the mean ± SD of at least three independent experiments.
Can you tell me IC50 for the items I'm about to list?
Numbers only, in µM.

Report IC50 for every entry below.
1. Cc1cc(S(=O)(=O)NC(N)=NN=C(C=Cc2ccc(Cl)cc2)c2ccccc2)c(SCc2ccccc2)cc1Cl
2. Cc1cccc(CSc2cc(Cl)c(C)cc2S(=O)(=O)NC(N)=NN=C(C=Cc2ccc(O)cc2)c2ccccc2)c1
3. Cc1cc(S(=O)(=O)NC(N)=NN=C(C=Cc2ccccc2)c2ccccc2)c(SCc2ccc(Cl)cc2)cc1Cl

Resp:
1. 190
2. 21
3. 20

###

Would you kindly list pIC50 for each of these compounds?
System: MCF-7 (breast cancer)
Method Description: MTT cell viability assay, MCF-7
Format: cell-based, human
Condition Summary: Homo sapiens, MCF7; MTT, 72 h
Give bare numbers, as −log10 of the molar value.

Worked set:
INSERT INTO assay_data (compound, assay_system, quantity_name, readout_number) VALUES
  ('Cc1ccc(CSc2cc(Cl)c(C)cc2S(=O)(=O)NC(N)=NN=C(C=Cc2ccc([N+](=O)[O-])cc2)c2ccccc2)cc1 [Compound 23]', 'MCF-7 (breast cancer)', 'pIC50', 3.55),
  ('COc1ccc(C=CC(=NN=C(N)NS(=O)(=O)c2cc(C)c(Cl)cc2SCc2ccc(Cl)cc2)c2ccccc2)cc1 [Compound 31]', 'MCF-7 (breast cancer)', 'pIC50', 3.64);

Moving on to the next compound.
Req: Return reported pIC50. Input compound: Cc1cc(S(=O)(=O)NC(N)=NN=C(C=Cc2ccccc2O)c2ccccc2)c(SCc2ccccc2C)cc1Cl [Compound 14]
Resp: 4.89

###

Please provide measured pIC50 for the entries that follow.
Tested on: HCT-116 (colon cancer)
Method Description: MTT cell viability assay, HCT-116
Format: cell-based, human
Condition Summary: Homo sapiens, HCT-116; MTT, 72 h
Answers are plain numbers, as −log10 of the molar value.

Example entries and their recorded answers appear below.
INSERT INTO assay_data (smiles_str, assay_system, readout_number) VALUES
  ('Cc1cc(S(=O)(=O)NC(N)=NN=C(C=Cc2ccc([N+](=O)[O-])cc2)c2ccccc2)c(SCc2ccc(Cl)cc2)cc1Cl', 'HCT-116 (colon cancer)', 3.35),
  ('Cc1cc(S(=O)(=O)NC(N)=NN=C(C=Cc2ccccc2)c2ccccc2)c(SCc2ccccc2)cc1Cl', 'HCT-116 (colon cancer)', 3.78),
  ('Cc1cc(S(=O)(=O)NC(N)=NN=C(C=Cc2ccccc2O)c2ccccc2)c(SCc2cccc(Cl)c2)cc1Cl', 'HCT-116 (colon cancer)', 5.00),
  ('Cc1cc(S(=O)(=O)NC(N)=NN=C(C=Cc2ccccc2)c2ccccc2)c(SCc2ccc(Cl)cc2)cc1Cl', 'HCT-116 (colon cancer)', 3.66),
  ('Cc1cc(S(=O)(=O)NC(N)=NN=C(C=Cc2ccc(O)cc2)c2ccccc2)c(SCc2ccc(Cl)cc2)cc1Cl', 'HCT-116 (colon cancer)', 5.10);

Record pIC50 for all entries; do not skip any.
1. Cc1cccc(CSc2cc(Cl)c(C)cc2S(=O)(=O)NC(N)=NN=C(C=Cc2ccc(O)cc2)c2ccccc2)c1
2. Cc1ccc(CSc2cc(Cl)c(C)cc2S(=O)(=O)NC(N)=NN=C(C=Cc2ccc(O)cc2)c2ccccc2)cc1

Resp:
[4.92, 5.07]
